Biological target: T1, Recombinant human CD4 (R&D Systems, Cat. 10327-CD) (human, UniProt P01730 26-390, limits assumed)
T1 construct: Bought reagent; also called huCD4
Test: BLI Octet, non-clonal supernatant on AMC sensor, 100 nM human CD4, 1:1 local fit;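 also: Single-concentration kinetics per supernatant, with the 1:1 model fitted across both the association and dissociation phases of the sensorgram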
# reported koff; entries follow
Report only the number, with the unit s⁻¹ understood.

Some entries whose results are on file:
75110_03D16A (antibody, V domains shown, Tested as non-clonal AlivaMab Mouse Kappa hybridoma supernatant, captured by anti-mouse IgG Fc sensor) VH: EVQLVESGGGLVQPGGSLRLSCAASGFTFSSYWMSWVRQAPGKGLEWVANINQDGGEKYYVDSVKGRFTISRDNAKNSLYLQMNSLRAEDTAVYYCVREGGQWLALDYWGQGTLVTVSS VL: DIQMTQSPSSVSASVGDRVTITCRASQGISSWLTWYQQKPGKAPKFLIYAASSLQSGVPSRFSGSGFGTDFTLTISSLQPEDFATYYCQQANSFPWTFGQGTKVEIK :: 0.0013
75110_04P08A (antibody, V domains shown, Tested as non-clonal AlivaMab Mouse Kappa hybridoma supernatant, captured by anti-mouse IgG Fc sensor) VH: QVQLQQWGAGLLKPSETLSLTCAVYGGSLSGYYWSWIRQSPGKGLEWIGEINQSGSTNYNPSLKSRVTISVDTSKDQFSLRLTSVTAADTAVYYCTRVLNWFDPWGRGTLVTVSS VL: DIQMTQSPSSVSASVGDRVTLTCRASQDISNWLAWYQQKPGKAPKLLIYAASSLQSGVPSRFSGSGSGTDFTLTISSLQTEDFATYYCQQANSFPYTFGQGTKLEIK :: 0.00022
75110_02E08A (antibody, V domains shown, Tested as non-clonal AlivaMab Mouse Kappa hybridoma supernatant, captured by anti-mouse IgG Fc sensor) VH: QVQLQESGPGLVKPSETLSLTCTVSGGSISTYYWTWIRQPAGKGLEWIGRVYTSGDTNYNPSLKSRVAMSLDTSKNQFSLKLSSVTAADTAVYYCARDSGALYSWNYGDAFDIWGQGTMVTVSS VL: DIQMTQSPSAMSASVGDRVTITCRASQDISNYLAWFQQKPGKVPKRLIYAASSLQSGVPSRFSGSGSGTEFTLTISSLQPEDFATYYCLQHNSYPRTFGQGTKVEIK :: 0.00051

Now let's try a different one.
Please give the measured koff for this binder: 75110_14N19A (antibody, V domains shown, Tested as non-clonal AlivaMab Mouse Kappa hybridoma supernatant, captured by anti-mouse IgG Fc sensor) VH: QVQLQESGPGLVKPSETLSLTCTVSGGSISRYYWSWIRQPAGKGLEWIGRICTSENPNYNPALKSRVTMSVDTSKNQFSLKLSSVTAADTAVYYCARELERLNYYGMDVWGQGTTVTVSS VL: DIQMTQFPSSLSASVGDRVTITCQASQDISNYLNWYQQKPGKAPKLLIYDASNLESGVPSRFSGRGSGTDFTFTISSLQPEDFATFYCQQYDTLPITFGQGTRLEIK
0.00274
